# Test system: Aphis gossypii
# test description: Aphis gossypii test, Example E (sprayed to runoff, ammonium salt boosting)
# Assay type: in vivo
# test conditions: 20 ppm active ingredient; +AS (1000 ppm)
Kindly state Degree of destruction/% after 6 days for each of the entries shown.
One number for each entry, in %.

- COCC1CCC2(CC1)NC(=O)C(c1c(C)cc(Cl)cc1C)=C2O (stereo not shown): 95

For each of the molecules below, note its Degree of destruction/% after 6 days.
1. COC1CCC2(CC1)NC(=O)C(c1cc(C)ccc1Br)=C2O (stereo not shown)
2. Cc1ccc(-c2ccc(Cl)cc2)cc1C1=C(O)C2(C)CCCCC2OC1=O (stereo not shown)
3. CO[C@H]1CC[C@]2(CC1)NC(=O)C(c1c(C)cc(I)cc1C)=C2O
4. COCCC1CCC2(CC1)NC(=O)C(c1c(C)cc(C)cc1C)=C2O (stereo not shown)
5. Cc1ccc(-c2ccc(Cl)cc2)cc1C1=C(O)C(C)(C)OC1=O
6. COC1CCC2(CC1)NC(=O)C(c1cc(C)c(Cl)cc1C)=C2O (stereo not shown)
7. Cc1ccc(-c2ccc(Cl)cc2)cc1C1=C(O)C(C)(C)C(C)(C)OC1=O
8. COCC1CCC2(CC1)NC(=O)C(c1c(C)cc(Cl)cc1Cl)=C2O (stereo not shown)

## Output
1: 80; 2: 80; 3: 99; 4: 85; 5: 30; 6: 75; 7: 45; 8: 85

## Input # input molecule: `Cc1ccc(-c2ccc(Cl)cc2)cc1C1=C(O)C(C)(C)NC1=O` ; wanted: its Degree of destruction/% after 6 days
## Output 80

====

# Tested on: Aphis gossypii
# test description: Aphis gossypii test, Example G (sprayed to runoff, ammonium salt plus penetrant)
# Type: in vivo
# test conditions: 4 ppm active ingredient; +AS (1000 ppm)
Values of Degree of destruction/% after 6 days strictly less than 40% map to T, and values of at least 40% map to F.

Here are 4 molecules together with their reported answers.
- Cc1ccc(-c2ccc(Cl)cc2)cc1C1=C(O)C(C)(C)OC1=O: T
- CO[C@@H]1CCC[C@]2(C1)NC(=O)C(c1c(C)cc(C)cc1C)=C2O: F
- Cc1ccccc1-c1c(O)c(C)c(-c2ccccn2)oc1=O: F
- CO[C@H]1CC[C@]2(CC1)NC(=O)C(c1c(C)cc(I)cc1C)=C2O: F

Turning now to a further molecule:
## Input Identify whether the molecule COC1CCC2(CC1)NC(=O)C(c1cc(C)ccc1Br)=C2O (centres unmarked) records Degree of destruction/% after 6 days below 40%.
## Output T

====

For each record, write down the corresponding Degree of destruction/% after 6 days.
# Tested on: Myzus persicae
# test description: Myzus persicae test, Example F (sprayed to runoff, ammonium salt plus penetrant)
# Type: in vivo
# test conditions: 0.8 ppm active ingredient; +RME +AS (each 1000 ppm)
One number for each entry, in %.

Would you please look over these solved cases?
• COCC1CCC2(CC1)NC(=O)C(c1c(C)cc(Cl)cc1C)=C2O (stereo not shown) = 80
• CO[C@H]1CC[C@]2(CC1)NC(=O)C(c1c(C)cc(I)cc1C)=C2O = 75
• Cc1cc(C)c(C2=C(O)C3(CCC(C)CC3)NC2=O)c(C)c1 (stereo not shown) = 80
• Cc1cc(Br)cc(C)c1-c1c(O)c(C)c(-c2ccccn2)oc1=O = 98

Each of the following entries comes with a recorded value; kindly state Degree of destruction/% after 6 days for each.
1. Cc1cc(Cl)cc(C)c1C1=C(O)C2(CCC3(CC2)OCCO3)NC1=O
2. CO[C@H]1CC[C@]2(CC1)NC(=O)C(c1cc(C)ccc1C)=C2O
3. COC1CCC2(CC1)NC(=O)C(c1c(C)cc(C)c(C)c1C)=C2O (stereo not shown)
4. COc1cc(C)cc(C)c1C1=C(O)C2(CCC(OC)CC2)OC1=O (stereo not shown)
5. COC1CCC2(CC1)OC(=O)C(c1c(C)cc(C)cc1C)=C2O (stereo not shown)

## Output
[20, 30, 75, 99, 100]

## Input Record request: Degree of destruction/% after 6 days value, item `COc1cc(C)cc(C)c1-c1c(O)c(C)c(-c2ccccn2)oc1=O`
## Output 40

====

# Test system: Myzus persicae
# test description: Myzus persicae test, Example D (sprayed to runoff, ammonium salt boosting)
# Format: in vivo
# test conditions: 20 ppm active ingredient; +AS (1000 ppm)
metric: Degree of destruction/% after 6 days (%)
Answers are plain numbers, in %.

Example entries and their recorded answers appear below.
• COc1cc(C)cc(C)c1-c1c(O)c(C)c(-c2ccccn2)oc1=O [Example I-4-a-1] = 95
• COC1CCC2(CC1)NC(=O)C(c1cc(C)c(Cl)cc1C)=C2O (stereo not shown) [Example I-1-a-10] = 85
• Cc1cc(Br)cc(C)c1-c1c(O)c(C)c(-c2ccccn2)oc1=O [Example I-4-a-3] = 85

## Input For Cc1ccc(-c2ccc(Cl)cc2)cc1C1=C(O)C(C)(C)C(C)(C)OC1=O [Example I-10-a-1] , what is its reported Degree of destruction/% after 6 days?
## Output 25

====

# Test system: Aphis gossypii
# test description: Aphis gossypii test, Example G (sprayed to runoff, ammonium salt plus penetrant)
# Assay type: in vivo
# test conditions: 0.8 ppm active ingredient; +RME +AS (each 1000 ppm)
Kindly supply the reported Degree of destruction/% after 6 days values for the records listed here.
Numbers only, in %.

Use the examples below as a reference point.
• Cc1cc(C)c(C2=C(O)C3(CCC(C)CC3)NC2=O)c(C)c1 (centres unmarked) = 60
• COc1cc(C)cc(C)c1C1=C(O)C2(CCC(OC)CC2)OC1=O (centres unmarked) = 95
• CO[C@H]1CC[C@]2(CC1)NC(=O)C(c1c(C)cc(I)cc1C)=C2O = 75

Could you tell me Degree of destruction/% after 6 days for each of these compounds? They are listed below.
1. Cc1cc(Br)cc(C)c1-c1c(O)c(C)c(-c2ccccn2)oc1=O
2. COc1cc(C)cc(Cl)c1C1=C(O)C2(CCC(OC)CC2)OC1=O (centres unmarked)

## Output
1: 80; 2: 70
